The origin of these recorded values is the NIST ThermoML archive (doi:10.1016/j.jct.2011.06.015).

Assay: Boiling temperature at pressure P
Conditions: 101.33 kPa; Liquid; Ebulliometric method (Recirculating still)
metric: Boiling temperature at pressure P (°C)

# smiles text, Boiling temperature at pressure P / °C
records = [
    ("Cc1ccccc1", 110.80),
    ("CCc1ccccc1", 136.20),
]

(I) CC(C)c1ccccc1
(II) O=S1(=O)CCCC1
Of I and II , which one carries the higher reported Boiling temperature at pressure P? Respond using the label that marks the chosen record.
II
